I'd be grateful if you could share measured pKd for these entries.
# Assay System: T1, human ROR1-hFc fusion protein (extracellular domain) (human)
# T1 construct: Whole entry 'human ROR1-Fc (CHO)'; also called hROR1; huROR1-Fc
# T1 sequence (chain, as listed by the source limits assumed): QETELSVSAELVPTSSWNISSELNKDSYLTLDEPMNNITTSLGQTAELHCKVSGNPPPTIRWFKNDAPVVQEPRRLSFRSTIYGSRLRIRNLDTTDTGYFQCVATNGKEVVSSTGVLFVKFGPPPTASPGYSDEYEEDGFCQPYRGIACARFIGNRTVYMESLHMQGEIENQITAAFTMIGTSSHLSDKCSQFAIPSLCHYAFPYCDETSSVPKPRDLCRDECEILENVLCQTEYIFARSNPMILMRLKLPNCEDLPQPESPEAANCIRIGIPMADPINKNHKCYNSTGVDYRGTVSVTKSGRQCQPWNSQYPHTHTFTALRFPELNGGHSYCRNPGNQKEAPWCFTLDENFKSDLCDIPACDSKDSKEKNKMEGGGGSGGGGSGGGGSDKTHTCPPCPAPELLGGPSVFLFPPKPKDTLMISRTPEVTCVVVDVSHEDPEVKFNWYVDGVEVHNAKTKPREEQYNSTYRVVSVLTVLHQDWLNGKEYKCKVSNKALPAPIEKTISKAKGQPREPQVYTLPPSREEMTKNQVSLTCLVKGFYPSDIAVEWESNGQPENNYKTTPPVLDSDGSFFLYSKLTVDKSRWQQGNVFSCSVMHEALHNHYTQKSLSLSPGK
# Test Description: SPR, ROR1-hFc on chip
pKd is a log-scale quantity: -log10 of the concentration expressed in molar.

Item under review: P3A1 dimer, no tag (VNAR) TRVDQTPRTATKETGESLTINCVLTDTSYGLYSTSWFRKNPGTTDWERMSIGGRYVESVNKGAKSFSLRIKDLTVADSATYYCKAREARHPWLRQWYDGAGTVLTVNGGGGSGGGGSGGGGSGGGGSGGGGSTRVDQTPRTATKETGESLTINCVLTDTSYGLYSTSWFRKNPGTTDWERMSIGGRYVESVNKGAKSFSLRIKDLTVADSATYYCKAREARHPWLRQWYDGAGTVLTVN . Reported pKd?
9.44

Same thing, different binder: P3A1 his myc (VNAR, VNAR; also called P3A1 6xHis myc) VNAR: TRVDQTPRTATKETGESLTINCVLTDTSYGLYSTSWFRKNPGTTDWERMSIGGRYVESVNKGAKSFSLRIKDLTVADSATYYCKAREARHPWLRQWYDGAGTVLTVNQ
7.59

Consider next the binder P3A1 his (VNAR, VNAR; also called P3A1 6xHis) VNAR: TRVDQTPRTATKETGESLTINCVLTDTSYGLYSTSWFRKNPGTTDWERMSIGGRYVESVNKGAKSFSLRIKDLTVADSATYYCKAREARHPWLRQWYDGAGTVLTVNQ in the same way.
8.11

P3A1-[G4S]5-P3A1 his myc (VNAR, VNAR homodimer by genetic fusion; also called P3A1-P3A1; P3A1 dimer) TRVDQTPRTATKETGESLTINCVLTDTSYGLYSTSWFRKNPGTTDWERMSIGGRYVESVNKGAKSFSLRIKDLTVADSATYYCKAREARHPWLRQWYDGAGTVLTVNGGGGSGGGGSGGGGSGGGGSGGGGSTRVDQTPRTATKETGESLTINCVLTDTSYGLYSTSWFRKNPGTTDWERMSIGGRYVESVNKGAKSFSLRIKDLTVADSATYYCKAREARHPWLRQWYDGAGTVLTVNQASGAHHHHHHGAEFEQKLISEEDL , same question.
9.46
